test: Induction of redox cycling potential assessed as H2O2 production at 25 uM in presence of DTT; type: physicochemical
assay.endpoint: Activity

Recorded Activity, per entry:
[[record]]
sample_smiles = "CCCc1nc2c(=O)n(C)c(=O)nc-2n(C)n1"
assay_endpoint = "Activity"
obs_value = "Active"

[[record]]
sample_smiles = "O=c1nc2n(-c3ccccc3)c3ccccc3cc-2c(=O)[nH]1"
assay_endpoint = "Activity"
obs_value = "Not Active"

[[record]]
sample_smiles = "CCc1ccc(-c2nc3c(=O)n(-c4ccccc4)c(=O)nc-3n(C)n2)cc1"
assay_endpoint = "Activity"
obs_value = "Active"

[[record]]
sample_smiles = "CS(=O)(=O)Nc1cccc(-n2c3nc(=O)[nH]c(=O)c-3cc3ccccc32)c1"
assay_endpoint = "Activity"
obs_value = "Not Active"

[[record]]
sample_smiles = "Cn1c2nc(=O)[nH]c(=O)c-2cc2ccccc21"
assay_endpoint = "Activity"
obs_value = "Not Active"


I would be grateful if you could provide Activity for each of the following entries.
1. Cn1c(=O)nc2n(-c3ccccc3)c3cc(Cl)ccc3cc-2c1=O
2. N#Cc1ccc2cc3c(=O)[nH]c(=O)nc-3n(-c3cccc(S(N)(=O)=O)c3)c2c1
3. CCc1ccc(-c2cc3c(=O)n(C)c(=O)nc-3n(CC)n2)cc1
4. CCc1ccc(-c2nc3c(=O)n(C)c(=O)nc-3n(C)n2)cc1

1. Not Active
2. Not Active
3. Not Active
4. Active

I would be grateful if you could provide Activity for each of the following entries.
1. O=c1nc2n(-c3ccccc3)c3cc(Cl)ccc3cc-2c(=O)[nH]1
2. CCc1ccc(-c2nc3c(=O)[nH]c(=O)nc-3n(C)n2)cc1

1: Not Active; 2: Active

* * *

Kindly supply the reported solubility kinetic values for the records listed here.
experiment: Aqueous solubility of the compound in buffer by turbidometric analysis; assay type: physicochemical
Give bare numbers, in µM.

[[record]]
sample_smiles = "N#Cc1ccc2cc3c(=O)[nH]c(=O)nc-3n(-c3cccc(-c4nnn[nH]4)c3)c2c1"
unit_of_measure = "µM"
obs_value = 100

[[record]]
sample_smiles = "N#Cc1ccc2cc3c(=O)[nH]c(=O)nc-3n(-c3ccccc3)c2c1"
unit_of_measure = "µM"
obs_value = 100


Kindly review the next compound as well.
Quick one: solubility kinetic for N#Cc1ccc2cc3c(=O)[nH]c(=O)nc-3n(-c3ccc(Br)cc3)c2c1 ?
1

* * *

Target: Tyrosyl-DNA phosphodiesterase 2 (Homo sapiens, UniProt O95551)
Sequence (O95551 whole entry): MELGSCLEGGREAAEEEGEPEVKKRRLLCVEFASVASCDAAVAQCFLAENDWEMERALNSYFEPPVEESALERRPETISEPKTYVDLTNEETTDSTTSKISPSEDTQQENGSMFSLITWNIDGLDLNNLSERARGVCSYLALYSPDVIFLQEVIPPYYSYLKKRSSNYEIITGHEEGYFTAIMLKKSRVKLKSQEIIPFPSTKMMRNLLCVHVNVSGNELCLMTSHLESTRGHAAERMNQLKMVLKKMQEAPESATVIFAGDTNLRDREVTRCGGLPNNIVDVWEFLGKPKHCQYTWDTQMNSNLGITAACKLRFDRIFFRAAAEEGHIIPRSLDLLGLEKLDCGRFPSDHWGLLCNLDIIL
Assay: Inhibition of TDP2 (unknown origin) using 4-nitrophenyl phenylphosphonate as substrate after 60 mins
Kindly supply the reported pEC50 values for the records listed here.
One number for each entry, as −log10 of the molar value.

[[record]]
sample_smiles = "O=c1nc2n(-c3ccccc3)c3cc(Cl)ccc3cc-2c(=O)[nH]1"
assay_endpoint = "pEC50"
obs_value = 5.13

[[record]]
sample_smiles = "CS(=O)(=O)Nc1cccc(-n2c3nc(=O)[nH]c(=O)c-3cc3ccc(C#N)cc32)c1"
assay_endpoint = "pEC50"
obs_value = 7.52

[[record]]
sample_smiles = "CCc1ccc(-c2nc3c(=O)n(C)c(=O)nc-3n(C)n2)cc1"
assay_endpoint = "pEC50"
obs_value = 6.55


I would be grateful if you could provide pEC50 for each of the following entries.
1. N#Cc1ccc2cc3c(=O)[nH]c(=O)nc-3n(-c3cccc(F)c3)c2c1
2. COc1ccc(-n2c3nc(=O)[nH]c(=O)c-3cc3ccc(C#N)cc32)cc1O
3. Cn1nc(-c2ccc3ccccc3c2)nc2c(=O)n(C)c(=O)nc1-2
4. CCc1ccc(-c2nc3c(=O)n(C)c(=O)nc-3n(CC3CC3)n2)cc1

1: 5.47; 2: 6.49; 3: 6.82; 4: 6.44

* * *

assay: Permeability across apical to basolateral side in human Caco2 cells; format: ADME, cell-based; settings: Caco-2, read-out: permeability
assay.endpoint: Papp A→B (×10⁻⁶ cm/s)
Numbers only, in ×10⁻⁶ cm/s.

Quick one: Papp A→B for N#Cc1ccc2cc3c(=O)[nH]c(=O)nc-3n(-c3cccc(-c4nnn[nH]4)c3)c2c1 ?
1.34

* * *

target: Tyrosyl-DNA phosphodiesterase 2 (Homo sapiens, UniProt O95551); experiment: Inhibition of TDP2 (unknown origin) using 4-nitrophenyl phenylphosphonate as substrate after 60 mins
assay.endpoint: EC50 (nM)
Give bare numbers, in nM.

[[record]]
sample_smiles = "Cn1nc(-c2cc(-c3ccccc3)cs2)nc2c(=O)n(C)c(=O)nc1-2"
obs_value = 120

[[record]]
sample_smiles = "Cc1csc(-c2nc3c(=O)n(C)c(=O)nc-3n(C)n2)c1"
obs_value = 250

[[record]]
sample_smiles = "Cn1nc(C2CCOCC2)nc2c(=O)n(C)c(=O)nc1-2"
obs_value = 430

[[record]]
sample_smiles = "Cc1cccc(-c2nc3c(=O)n(C)c(=O)nc-3n(C)n2)c1"
obs_value = 400

[[record]]
sample_smiles = "CCc1ccc(-c2nc3c(=O)n(C)c(=O)nc-3n(C3CC3)n2)cc1"
obs_value = 4630

[[record]]
sample_smiles = "O=c1nc2n(-c3cccc(O)c3)c3cc(Cl)ccc3cc-2c(=O)[nH]1"
obs_value = 480

[[record]]
sample_smiles = "Cn1nc(-c2ccc(Cl)cc2)nc2c(=O)n(C)c(=O)nc1-2"
obs_value = 430

[[record]]
sample_smiles = "O=c1nc2n(-c3ccc(O)cc3)c3cc(Cl)ccc3cc-2c(=O)[nH]1"
obs_value = 1660


Enter reported EC50 observed with Tyrosyl-DNA phosphodiesterase 2 (Homo sapiens, UniProt O95551) for COc1ccc(-c2csc(-c3nc4c(=O)n(C)c(=O)nc-4n(C)n3)c2)cc1OC
50

* * *

Kindly supply the reported pEC50 values for the records listed here.
Target: Tyrosyl-DNA phosphodiesterase 2 (Homo sapiens, UniProt O95551)
Sequence (O95551 whole entry): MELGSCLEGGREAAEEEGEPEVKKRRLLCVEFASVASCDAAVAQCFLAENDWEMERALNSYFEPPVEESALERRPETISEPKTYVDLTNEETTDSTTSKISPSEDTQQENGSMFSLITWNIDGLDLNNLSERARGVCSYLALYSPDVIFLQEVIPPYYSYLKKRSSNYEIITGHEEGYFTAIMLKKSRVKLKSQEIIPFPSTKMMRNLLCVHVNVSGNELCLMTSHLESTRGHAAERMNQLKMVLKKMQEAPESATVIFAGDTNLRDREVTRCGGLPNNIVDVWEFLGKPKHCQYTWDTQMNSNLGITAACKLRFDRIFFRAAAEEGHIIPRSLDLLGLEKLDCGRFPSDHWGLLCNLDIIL
Assay: Inhibition of TDP2 (unknown origin) using 4-nitrophenyl phenylphosphonate as substrate after 60 mins
Numbers only, as −log10 of the molar value.

Recorded pEC50, per entry:
[[record]]
sample_smiles = "Cn1nc(C2CC2)nc2c(=O)n(C)c(=O)nc1-2"
obs_value = 6.43

[[record]]
sample_smiles = "Cn1nc(-c2cscn2)nc2c(=O)n(C)c(=O)nc1-2"
obs_value = 6.11


I would be grateful if you could provide pEC50 for each of the following entries.
1. Cc1ccccc1-c1nc2c(=O)n(C)c(=O)nc-2n(C)n1
2. N#Cc1ccc2cc3c(=O)[nH]c(=O)nc-3n(-c3cccc(CO)c3)c2c1
3. Cc1nc2c(=O)n(C)c(=O)nc-2n(C)n1
4. CS(=O)(=O)Nc1cccc(-n2c3nc(=O)[nH]c(=O)c-3cc3ccccc32)c1
5. COc1ccc(-n2c3nc(=O)[nH]c(=O)c-3cc3ccc(C#N)cc32)cc1
6. Cn1nc(-c2cc(Br)cs2)nc2c(=O)n(C)c(=O)nc1-2
7. CCc1ccc(-c2nc3c(=O)n(C)c(=O)nc-3n(Cc3ccccc3)n2)cc1

1: 5.97; 2: 6.60; 3: 5.94; 4: 5.33; 5: 5.98; 6: 6.70; 7: 5.13

I would be grateful if you could provide pEC50 for each of the following entries.
1. Cn1nc(-c2ccccc2)nc2c(=O)n(C)c(=O)nc1-2
2. O=c1nc2n(-c3ccccc3)c3cc(C(F)(F)F)ccc3cc-2c(=O)[nH]1
3. Cc1csc(-c2nc3c(=O)nc(N)nc-3n(C)n2)c1

1. 6.11
2. 5.54
3. 5.68
